These entries and their values trace back to ChEMBL document CHEMBL3885861.

# Species on record: Rattus norvegicus
# Procedure text: Open TG-GATES - Regimen: Daily Repeat
# Assay type: toxicity, organism-based, Sprague-Dawley
# Parameters: regimen Daily Repeat, gender Male, age 6 weeks
# Setup conditions: in vivo, po, 1000 mg/kg, […], tissue Plasma, route gavage, dose level High, time 28 day
Test readout: ALT (IU/L)
Field: numeric (IU/L). Do not append units.

Reference set, count: 5
Given item CCOc1ccc(NC(C)=O)cc1 , the value recorded as its ALT is 51.4

Data point: Cc1nnc2n1-c1ccc(Cl)cc1C(c1ccccc1Cl)=NC2 ; ALT = 41.2

For CN/C(=N/CCSCc1nc[nH]c1C)NC#N the compound record lists ALT as 40

COC(=O)C1=C(C)NC(C)=C(C(=O)OC)C1c1ccccc1[N+](=O)[O-] has a reported ALT of 40.2

Measured ALT, O=C(OC[C@H]1O[C@@H](OC(=O)c2cc(O)c(O)c(OC(=O)c3cc(O)c(O)c(O)c3)c2)[C@H](OC(=O)c2cc(O)c(O)c(OC(=O)c3cc(O)c(O)c(O)c3)c2)[C@@H](OC(=O)c2cc(O)c(O)c(OC(=O)c3cc(O)c(O)c(O)c3)c2)[C@@H]1OC(=O)c1cc(O)c(O)c(OC(=O)c2cc(O)c(O)c(O)c2)c1)c1cc(O)c(O)c(OC(=O)c2cc(O)c(O)c(O)c2)c1 : 31.6

The record that follows has no ALT shown yet.
Summary for this compound, CNC(=C[N+](=O)[O-])NCCSCc1ccc(CN(C)C)o1 : ALT is 38.8
